# assayDetails: mn = molality of the nth substance listed, in mol/kg
# settings: 308.15 K; 100 kPa; Liquid; Vibrating tube method; m2 = 0
In this section, each of the compounds is paired with its reported mass density.

| compound | unitOfMeasurement | mass density |
| --- | --- | --- |
| CC(=O)N(C)C [N,N-dimethylethanamide] + O=S(=O)([O-])C(F)(F)F.O=S(=O)([O-])C(F)(F)F.[Mg+2] | kg/m3 | 927.047 |
| CC(=O)N(C)C [N,N-dimethylethanamide] + [Ba+2].[O-][Cl+3]([O-])([O-])[O-].[O-][Cl+3]([O-])([O-])[O-] | kg/m3 | 927.058 |
| CN(C)C=O [dimethylformamide] + O=S(=O)([O-])C(F)(F)F.O=S(=O)([O-])C(F)(F)F.[Mg+2] | kg/m3 | 934.34 |
| CN(C)C=O [dimethylformamide] + O=S(=O)([O-])C(F)(F)F.O=S(=O)([O-])C(F)(F)F.[Ca+2] | kg/m3 | 934.356 |

* * *

# assayDetails: mn = molality of the nth substance listed, in mol/kg
# settings: 308.15 K; 100 kPa; Liquid; Vibrating tube method; m2 = 0

| molecule | mass density (kg/m3) |
| --- | --- |
| CN(C)C=O [dimethylformamide] + [Ba+2].[O-][Cl+3]([O-])([O-])[O-].[O-][Cl+3]([O-])([O-])[O-] | 934.36 |
| CC(=O)N(C)C [N,N-dimethylethanamide] + O=S(=O)([O-])C(F)(F)F.O=S(=O)([O-])C(F)(F)F.[Sr+2] | 927.058 |
| CN(C)C=O [dimethylformamide] + O=S(=O)([O-])C(F)(F)F.O=S(=O)([O-])C(F)(F)F.[Sr+2] | 934.36 |
| CC(=O)N(C)C [N,N-dimethylethanamide] + O=S(=O)([O-])C(F)(F)F.O=S(=O)([O-])C(F)(F)F.[Ca+2] | 927.058 |

* * *

# assayDetails: mn = molality of the nth substance listed, in mol/kg
# settings: 303.15 K; 100 kPa; Liquid; Frequency=3 MHz; Sing-around technique in a fixed-path interferometer; m2 = 0
In this section, each of the compounds is paired with its reported speed of sound.
observable: speed of sound (m/s)

| compound | obsValue |
| --- | --- |
| CN(C)C=O [dimethylformamide] + O=S(=O)([O-])C(F)(F)F.O=S(=O)([O-])C(F)(F)F.[Ca+2] | 1437.9 |
| CN(C)C=O [dimethylformamide] + [Ba+2].[O-][Cl+3]([O-])([O-])[O-].[O-][Cl+3]([O-])([O-])[O-] | 1437.8 |
| CN(C)C=O [dimethylformamide] + O=S(=O)([O-])C(F)(F)F.O=S(=O)([O-])C(F)(F)F.[Sr+2] | 1438 |
| CN(C)C=O [dimethylformamide] + O=S(=O)([O-])C(F)(F)F.O=S(=O)([O-])C(F)(F)F.[Mg+2] | 1437.9 |
| CC(=O)N(C)C [N,N-dimethylethanamide] + [Ba+2].[O-][Cl+3]([O-])([O-])[O-].[O-][Cl+3]([O-])([O-])[O-] | 1436 |
| CC(=O)N(C)C [N,N-dimethylethanamide] + O=S(=O)([O-])C(F)(F)F.O=S(=O)([O-])C(F)(F)F.[Mg+2] | 1436 |
| CC(=O)N(C)C [N,N-dimethylethanamide] + O=S(=O)([O-])C(F)(F)F.O=S(=O)([O-])C(F)(F)F.[Sr+2] | 1435.9 |
| CC(=O)N(C)C [N,N-dimethylethanamide] + O=S(=O)([O-])C(F)(F)F.O=S(=O)([O-])C(F)(F)F.[Ca+2] | 1435.9 |

* * *

In this section, each of the compounds is paired with its reported mass density.
# assayDetails: mn = molality of the nth substance listed, in mol/kg
# settings: 303.15 K; 100 kPa; Liquid; Vibrating tube method; m2 = 0

| compound | mass density / kg/m3 |
| --- | --- |
| CN(C)C=O [dimethylformamide] + O=S(=O)([O-])C(F)(F)F.O=S(=O)([O-])C(F)(F)F.[Ca+2] | 939.142 |
| CC(=O)N(C)C [N,N-dimethylethanamide] + [Ba+2].[O-][Cl+3]([O-])([O-])[O-].[O-][Cl+3]([O-])([O-])[O-] | 931.67 |
| CN(C)C=O [dimethylformamide] + [Ba+2].[O-][Cl+3]([O-])([O-])[O-].[O-][Cl+3]([O-])([O-])[O-] | 939.144 |
| CC(=O)N(C)C [N,N-dimethylethanamide] + O=S(=O)([O-])C(F)(F)F.O=S(=O)([O-])C(F)(F)F.[Ca+2] | 931.67 |
| CC(=O)N(C)C [N,N-dimethylethanamide] + O=S(=O)([O-])C(F)(F)F.O=S(=O)([O-])C(F)(F)F.[Mg+2] | 931.67 |
| CN(C)C=O [dimethylformamide] + O=S(=O)([O-])C(F)(F)F.O=S(=O)([O-])C(F)(F)F.[Sr+2] | 939.144 |
| CN(C)C=O [dimethylformamide] + O=S(=O)([O-])C(F)(F)F.O=S(=O)([O-])C(F)(F)F.[Mg+2] | 939.125 |
| CC(=O)N(C)C [N,N-dimethylethanamide] + O=S(=O)([O-])C(F)(F)F.O=S(=O)([O-])C(F)(F)F.[Sr+2] | 931.679 |

* * *

# assayDetails: mn = molality of the nth substance listed, in mol/kg
# settings: 298.15 K; 100 kPa; Liquid; Vibrating tube method; m2 = 0
observable: mass density (kg/m3)

| molecule | obsValue |
| --- | --- |
| CN(C)C=O [dimethylformamide] + O=S(=O)([O-])C(F)(F)F.O=S(=O)([O-])C(F)(F)F.[Ca+2] | 943.915 |
| CN(C)C=O [dimethylformamide] + [Ba+2].[O-][Cl+3]([O-])([O-])[O-].[O-][Cl+3]([O-])([O-])[O-] | 943.919 |
| CC(=O)N(C)C [N,N-dimethylethanamide] + [Ba+2].[O-][Cl+3]([O-])([O-])[O-].[O-][Cl+3]([O-])([O-])[O-] | 936.277 |
| CC(=O)N(C)C [N,N-dimethylethanamide] + O=S(=O)([O-])C(F)(F)F.O=S(=O)([O-])C(F)(F)F.[Ca+2] | 936.279 |
